All values here come from paper PMC11200585.

Tested on: MDA-MB-231/ATCC
test.method.notes: NCI-60 five-dose assay (breast cancer)
Assay type: cell-based, human
protocol.conditions: Homo sapiens, 48 h, SRB
property: GI50 (nM)
State just the number; it will be interpreted in nM.

COc1cc(NC2=C(Cl)C(=O)c3nc(C)ccc3C2=O)cc(OC)c1 :: 1460
CCOc1ccccc1NC1=C(Cl)C(=O)c2nc(C)ccc2C1=O :: 1070

Problem: Entry `COc1ccccc1NC1=C(Cl)C(=O)c2nc(C)ccc2C1=O` has what GI50?
Result: 1190

Problem: Give the measured GI50 of `CCOc1ccc(NC2=C(Cl)C(=O)c3nc(C)ccc3C2=O)cc1` .
Result: 1170
